- System: EKVX NSCLC
- ASSAY_COMMENT: NCI-60 one-dose screen, 48 h
- TEST_CONTEXT: 10 µM unless noted
- Method: Growth inhibition of the EKVX human Non-Small Cell Lung tumor cell line is measured as a screen for anti-cancer activity. Cells are grown in 96 well plates and exposed to the test compound for 48 hours. Compounds are tested at a single concentration, which is 10^-5 M for most compounds. The reported endpoint is percent growth (GI% or GIPRCNT), where numbers from 0 - 100% represent growth inhibition, and numbers from -100% - 0 represent cell death. […]
The panel holds about 83,000 compounds, 20% with a hit somewhere; the sample as a whole holds those more often. Activity calls are given as the source filed them. The calls were made as follows: active = growth percent below 10; inactive = the rest.
Please answer using one outcome listed in active, inactive

What did this assay record as the result for `CC(C)(C)n1cc(-c2ccnc(NCCCNS(=O)(=O)c3ccc(C(F)(F)F)cc3)c2)c(-c2cccc(O)c2)n1` ? inactive

Dear colleague, could you share the recorded outcome for CCOC(=O)C1CCNC(=O)C1=O (stereo unspecified) when you have a moment? inactive

What did this assay record as the result for `Cc1ccc(S(=O)(=O)NCCCNc2cc(-c3cn(C(C)(C)C)nc3-c3cccc(O)c3)ccn2)cc1` ? inactive

Called result for CC(C)(C)N1CCC1C(N)=O (stereo unspecified) inactive

Kindly provide the recorded test outcome for the following compound: `CC(=O)c1cc2c(N)c(C(=O)Nc3cccc4c3OCCO4)sc2nc1C` inactive

Please state the recorded outcome for this compound: CC(=O)OC[C@]12CC[C@H]3[C@@H](C[C@H]4O[C@]45CC=CC(=O)[C@]35C)[C@]1(O)CC[C@@]2(O)[C@@](C)(O)C1CC(C)=C(C)C(=O)O1 (stereo partly specified) active

Which result was noted for this compound in the test: CCCCCCCCCCCCCCCCCCNC(=O)[C@H]1CSC(c2ccc(OC)cc2O)N1 (stereo partly specified) inactive

Any idea what this test logged for `CCc1ccc(-c2ccc(=O)n(-c3ccc(S(N)(=O)=O)cc3)n2)cc1` ? inactive

# fetch the recorded call for O=C(O)C1CCCCN1c1nc(Cl)nc(Cl)n1 (stereo unspecified) here inactive

Hello, I am checking results. What call was entered for `Cc1ccc(-c2cc3nc(-c4ccccc4)nc(C(Cl)Cl)n3n2)cc1` ? active

Outcome? `CC(C)(C)n1cc(-c2ccnc(NCCNS(=O)(=O)c3ccc(Cl)cc3)c2)c(-c2cccc(O)c2)n1` inactive

Please share the test call associated with `COc1ccc(CCNC2=CC(=O)CCC2)cc1OC` . inactive

Recorded test outcome, item `Cc1ccc(NS(=O)(=O)c2cc(C)ccc2C)cc1` inactive

Could you check what this test reported for `CCOC(=O)CC(=O)OC` ? inactive

Answer briefly: the call reported for `CCN(CC)CCOc1ccc(/C(=C(/C)c2ccccc2)c2ccc(OC(C)=O)cc2)cc1` in this assay. inactive

Query: recorded result category for `CCN(CC)CCOc1ccc(Cl)c(C)c1` in this test inactive

Called result for `CC(C)(C)n1cc(-c2ccnc(NCCCNS(=O)(=O)c3ccc(Cl)cc3)c2)c(-c2cccc(O)c2)n1` inactive

Short answer needed: outcome of this test for `CCN(CC)c1ccc(CNc2ccnc3ccccc23)cc1` ? inactive

Test call for this compound, please: `O=C(O)c1nc(-c2ccccc2)oc1N1CCOCC1` inactive

Test call for this compound, please: `Cc1ccc(Cc2c(C=O)nc(N)[nH]c2=O)c2ccccc12` inactive

For `N/C(=N\S(=O)(=O)c1ccccc1)Nc1nc2ccccc2s1` , what call appears in the results of this test? inactive

Test call for this compound, please: `COC(=O)[C@]12CC[C@@H](C)[C@H](C)[C@@H]1C1=CC[C@@H]3[C@@]4(C)C(C=O)=C[C@@](C)(COC(=O)c5ccco5)[C@@H]4[C@H](O)C[C@@]3(C)[C@]1(C)CC2` active

I would be grateful if you could indicate the recorded call for `Cn1c(=O)cc(NC(=O)CN2CCN(c3cc4c(cc3F)c(=O)c(C(=O)O)cn4C3CC3)CC2)[nH]c1=O` . inactive

Please indicate how the test categorized `CCCCN(CCCC)c1ccc(C(=N)c2ccc(N(CCCC)CCCC)cc2)cc1` . active

How did this test come out for CCOC(=O)c1ccc(NC(=O)N2CC(C)OC(C)C2)cc1 (stereo unspecified) ? inactive

I would be grateful if you could indicate the recorded call for `O=C1NN(C(=O)c2ccc(Cl)cc2)C(c2ccccc2)=N/C1=C\c1ccc(F)cc1` . inactive

In this assay, the call recorded for CCO/C=N/C1=C(C#N)C(c2ccc(Cl)cc2)c2c(c3ccc(C)cc3[nH]c2=O)O1 (stereo unspecified) was what? inactive

State the result this test recorded for NC(=S)N/N=C1\CCCC(C(F)(F)F)C1 (stereo unspecified) . inactive

Recorded test outcome, item `Cc1nc2ncccc2nc1Nc1ccc(S(=O)(=O)Nc2cncs2)cc1` inactive

Given `C=C(C)[C@@H]1C[C@@H]2Cc3cc(Cl)ccc3N1O2` , state the outcome it received in this test. inactive

Name the outcome recorded for CC12CCC3C4(C)COC(c5ccccc5Cl)OC4CCC3(C)C1CC(C1=CCOC1=O)O2 (stereo unspecified) in the assay. inactive

Look up the recorded call for `COc1ccc(-c2ccc(-c3ccc(C(=N)N)s3)s2)cc1Cl` in this test. inactive

Recorded test outcome, item `CC(=O)Oc1csc(N(C(C)=O)c2cccc(C(F)(F)F)c2)n1` inactive

Write down the call the test reported for this compound. Item: CN1C(=O)N(C)C2C1NN=c1s/c(=C\c3cccnc3)c(=O)n12 (stereo unspecified) inactive

Hey, what did the test say about `COc1ccc(N=Cc2c(O)ccc3c2oc2cc(Cl)c(O)c(Cl)c23)cc1` ? inactive

Could you please tell me the result logged for `COc1ccc(S(=O)(=O)NCCCNc2nccc(-c3c(-c4cccc([N+](=O)[O-])c4)nc4sccn34)n2)cc1` in this assay? inactive

Fill in: this test's call for `COc1ccc(CN2CCc3c(Sc4ccccc4)nc(N)nc3C2=O)c(OC)c1` is ___ inactive

What did the test return for CCN1C(=O)N(CC)C2C1NN=c1s/c(=C\c3cccnc3)c(=O)n12 (stereo unspecified) ? inactive

Dear all, I need the recorded test outcome for `C=C1C(=O)O[C@H]2[C@H]1CC/C(Cn1cc(CNC(=O)Cc3cn(C(=O)c4ccc(Cl)cc4)c4ccc(OC)cc34)nn1)=C\CC[C@@]1(C)O[C@@H]21` , thank you. inactive

GET /call?item= `S=C1CC(=S)NC(=S)N1` returns the recorded outcome of this test. inactive

Please share the test call associated with `ClC(Cl)c1nc(-c2cccnc2)n2nc(-c3ccccc3)cc2n1` . inactive
